Source: patent US20260250371A1

Measured Kd accompanies every entry in the list below.
measurementTarget: T1, cynomolgus monkey (Macaca fascicularis) FGF23 (R179Q) (cynomolgus monkey (Macaca fascicularis), UniProt Q9GZV9 25-251 (human entry), limits assumed)
T1 construct: also called cynoFGF23; cynoFGF23(R179Q)
T1 chain: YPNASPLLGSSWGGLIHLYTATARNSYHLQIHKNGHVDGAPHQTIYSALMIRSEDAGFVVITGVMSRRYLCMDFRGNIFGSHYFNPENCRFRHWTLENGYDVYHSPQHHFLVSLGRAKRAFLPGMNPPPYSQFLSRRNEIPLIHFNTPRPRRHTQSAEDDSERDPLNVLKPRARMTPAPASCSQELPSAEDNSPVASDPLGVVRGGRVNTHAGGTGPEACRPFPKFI
experimentalDetails: SPR, antibody captured on hIgG chip, cynoFGF23(R179Q) analyte, single cycle kinetics
Kindly answer with a numeric value in pM, unit omitted.

Past entries and their recorded results:
UGX205 (antibody, human IgG1, kappa, V domains shown, also called HC:S59E, LC:Y94D; S59E/Y94D) VH: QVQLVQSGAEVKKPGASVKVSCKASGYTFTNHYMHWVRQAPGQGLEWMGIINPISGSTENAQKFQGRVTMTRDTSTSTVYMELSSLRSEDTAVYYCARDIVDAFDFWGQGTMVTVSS VL: AIQLTQSPSSLSASVGDRVTITCRASQGISSALVWYQQKPGKAPKLLIYDASSLESGVPSRFSGSGSGTDFTLTISSLQPEDFATYYCQQFNDDFTFGPGTKVDIKR | 2.57
UGX157 (antibody, human IgG1, kappa, V domains shown, also called HC:I54Y; I54Y) VH: QVQLVQSGAEVKKPGASVKVSCKASGYTFTNHYMHWVRQAPGQGLEWMGIINPYSGSTSNAQKFQGRVTMTRDTSTSTVYMELSSLRSEDTAVYYCARDIVDAFDFWGQGTMVTVSS VL: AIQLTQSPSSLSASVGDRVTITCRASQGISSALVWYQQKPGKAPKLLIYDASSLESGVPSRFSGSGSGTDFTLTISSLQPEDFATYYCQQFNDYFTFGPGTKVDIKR | 5.73
UGX204 (antibody, human IgG1, kappa, V domains shown, also called HC:S59E, LC:S52E; S59E/S52E) VH: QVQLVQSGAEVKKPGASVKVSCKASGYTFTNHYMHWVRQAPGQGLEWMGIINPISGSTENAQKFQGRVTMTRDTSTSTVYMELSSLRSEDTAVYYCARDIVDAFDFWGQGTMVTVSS VL: AIQLTQSPSSLSASVGDRVTITCRASQGISSALVWYQQKPGKAPKLLIYDAESLESGVPSRFSGSGSGTDFTLTISSLQPEDFATYYCQQFNDYFTFGPGTKVDIKR | 16
UGX175 (antibody, human IgG1, kappa, V domains shown, also called HC:A103S; A103S) VH: QVQLVQSGAEVKKPGASVKVSCKASGYTFTNHYMHWVRQAPGQGLEWMGIINPISGSTSNAQKFQGRVTMTRDTSTSTVYMELSSLRSEDTAVYYCARDIVDSFDFWGQGTMVTVSS VL: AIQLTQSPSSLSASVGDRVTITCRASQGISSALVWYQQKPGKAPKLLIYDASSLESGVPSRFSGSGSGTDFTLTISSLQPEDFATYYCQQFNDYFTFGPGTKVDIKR | 6.17
UGX145 (antibody, human IgG1, kappa, V domains shown, also called UGX042; LC:Y94E) VH: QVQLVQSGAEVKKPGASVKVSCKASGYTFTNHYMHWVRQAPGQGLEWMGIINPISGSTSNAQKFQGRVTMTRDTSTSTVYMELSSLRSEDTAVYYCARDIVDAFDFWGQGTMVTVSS VL: AIQLTQSPSSLSASVGDRVTITCRASQGISSALVWYQQKPGKAPKLLIYDASSLESGVPSRFSGSGSGTDFTLTISSLQPEDFATYYCQQFNDEFTFGPGTKVDIKR | 12.9
UGX206 (antibody, human IgG1, kappa, V domains shown, also called HC:S59E, LC:Y94E; S59E/Y94E) VH: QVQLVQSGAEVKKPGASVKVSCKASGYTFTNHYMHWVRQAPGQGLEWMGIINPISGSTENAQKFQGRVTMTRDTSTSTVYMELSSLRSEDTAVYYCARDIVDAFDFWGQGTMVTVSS VL: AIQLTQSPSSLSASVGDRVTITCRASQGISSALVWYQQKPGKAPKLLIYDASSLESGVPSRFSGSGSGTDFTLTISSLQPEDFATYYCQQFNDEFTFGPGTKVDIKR | 7.16
UGX139 (antibody, human IgG1, kappa, V domains shown, also called UGX038; LC:N92Y) VH: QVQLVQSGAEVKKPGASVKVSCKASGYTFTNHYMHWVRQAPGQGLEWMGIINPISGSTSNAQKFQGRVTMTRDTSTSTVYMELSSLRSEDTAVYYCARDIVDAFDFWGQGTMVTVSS VL: AIQLTQSPSSLSASVGDRVTITCRASQGISSALVWYQQKPGKAPKLLIYDASSLESGVPSRFSGSGSGTDFTLTISSLQPEDFATYYCQQFYDYFTFGPGTKVDIKR | 16.2
UGX126 (antibody, human IgG1, kappa, V domains shown, also called LC:S52D; S52D) VH: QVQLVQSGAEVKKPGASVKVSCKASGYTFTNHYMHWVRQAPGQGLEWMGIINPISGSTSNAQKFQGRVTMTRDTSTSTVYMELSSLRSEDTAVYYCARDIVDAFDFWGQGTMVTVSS VL: AIQLTQSPSSLSASVGDRVTITCRASQGISSALVWYQQKPGKAPKLLIYDADSLESGVPSRFSGSGSGTDFTLTISSLQPEDFATYYCQQFNDYFTFGPGTKVDIKR | 10.3

Now for the binder whose Kd we want.
Q: Which measured Kd value corresponds to UGX144 (antibody, human IgG1, kappa, V domains shown, also called LC:Y94D; Y94D) VH: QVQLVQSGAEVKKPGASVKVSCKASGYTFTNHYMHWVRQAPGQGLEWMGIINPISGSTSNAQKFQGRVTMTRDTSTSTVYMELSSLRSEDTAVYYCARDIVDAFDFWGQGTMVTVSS VL: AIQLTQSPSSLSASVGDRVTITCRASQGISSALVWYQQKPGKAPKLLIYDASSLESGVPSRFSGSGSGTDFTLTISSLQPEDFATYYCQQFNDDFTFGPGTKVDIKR ?
Ans: 6.86
